The reported measurements were obtained from PubChem BioAssay.

- EXPERIMENT_DESCRIPTION: antimalarial activity against Dd2 strain (AID 2302)
- MEASUREMENT_CONTEXT: P. falciparum Dd2 in RBCs, LDH growth readout, 72 h; at 2 µM
The source made the active and inactive calls.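 The calls were made as follows: active = growth inhibition above 50% at the single 2 µM test dose, taken to imply half-maximal potency below 2 µM; inactive = the rest.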
Classes used: YES for active, NO for inactive

In [3]: df
Out[3]:
                                    molecule  group
 0  CCOc1ccc(C(=O)Nc2cc(Br)c3c(c2)CNCC3)cc1C#N     NO
 1  COc1cc(C(C)C)ccc1C1CCN(CCCCNC(=O)c2ccc(NC(=O)c3ccc(Cl)cc3)cc2)CC1    YES
 2  C=CCn1c(C)cc(C(=O)COc2ccc(S(=O)(=O)N3CCOCC3)cc2[N+](=O)[O-])c1C     NO
 3  O=C(NC1CCN(Cc2ccc(F)cc2)CC1)c1ccc(-c2cccc(C(F)(F)F)c2)s1     NO
 4  Cc1cccc(CNc2nc(C)cc(NCCC(=O)NCCOc3ccccc3)n2)c1     NO
 5  CCN(CC)S(=O)(=O)n1ncc2c3c(N)nc(N)nc3ccc21     NO
 6  CN(C)CCOc1ccc(NC(=O)Nc2ccnc3c(Br)cccc23)cc1Cl     NO
 7  Oc1ccc(-c2cc(COc3ccccc3C(F)(F)F)c(C3=CCNCC3)cc2COc2ccccc2C(F)(F)F)cc1    YES
 8  Cc1cccc2[nH]c(-c3cccc(-c4cccc(CNCCc5cccn5C)c4)c3)nc12     NO
 9  Cc1ccc(NC(=O)NC2CCN(CCCCCNC(=O)/C=C/c3ccc(Cl)c(Cl)c3)CC2)cc1     NO
10  O=C(N[C@H]1CCN(CCc2ccc(O[C@H]3CCNC3)c(Cl)c2)C1)c1ccc(Cl)c(Cl)c1     NO
11  O=C(C=Cc1ccc(Cl)c(Cl)c1)NCCCCCN1CCC(CCCNS(=O)(=O)c2ccc(Br)cc2)CC1     NO
12  CC(C)CNCc1cccc(-c2cccc(CN(CCN(C)C)C(=O)NCCc3ccccc3)c2)c1    YES
13   Nc1c2c(nc3ccc(NC(=O)c4ccccc4)cc13)CCCC2     NO
14  COc1cc(-c2nc(-c3ccccc3)c(-c3ccc(C(=O)c4ccc(F)cc4)cc3)[nH]2)cc(OC)c1O    YES
15              CCCCCCNc1cc(C)nc2ccc(OC)cc12    YES
16  COc1cc(Cc2cnc(N)nc2N)c2c(c1OC)OC(C)C=C2 (stereo not given)     NO
17  CN1CCN(CCCN(Cc2cccc(-c3ccc(CNCCc4ccccc4)cc3)c2)C(=O)c2cccs2)CC1    YES
18  c1cc(CN2CCN(CCN3CCOCC3)CC2)cc(-c2cccc(-c3nc4ccccc4[nH]3)c2)c1    YES
19  Cc1cc(N2Cc3ccccc3C2)nc(Nc2cccc(C#N)c2)n1    YES
20  Cc1cccc(C(=O)Nc2ccnc(N3CCCN(Cc4cccc(O)c4)CC3)c2)c1     NO
21  O=C(Cc1cccc2ccccc12)NC1CCN(c2ccnc3cc(Cl)ccc23)C1 (stereo not given)    YES
22  CON=Cc1sc(CNCCCNc2cc(=O)c3ccccc3[nH]2)c(C)c1Br    YES
23  Cc1cccc2[nH]c(-c3ccc(-c4ccc(CNCCCNS(C)(=O)=O)cc4)s3)nc12     NO
24  CC(C)N1CCN(C(=O)c2ccc(CNCCCN3CCN(c4ccccc4C(F)(F)F)CC3)s2)CC1     NO
